# TARGET: T1, human Y1 receptor (human, UniProt P25929 1-384)
# T1 sequence (looked up): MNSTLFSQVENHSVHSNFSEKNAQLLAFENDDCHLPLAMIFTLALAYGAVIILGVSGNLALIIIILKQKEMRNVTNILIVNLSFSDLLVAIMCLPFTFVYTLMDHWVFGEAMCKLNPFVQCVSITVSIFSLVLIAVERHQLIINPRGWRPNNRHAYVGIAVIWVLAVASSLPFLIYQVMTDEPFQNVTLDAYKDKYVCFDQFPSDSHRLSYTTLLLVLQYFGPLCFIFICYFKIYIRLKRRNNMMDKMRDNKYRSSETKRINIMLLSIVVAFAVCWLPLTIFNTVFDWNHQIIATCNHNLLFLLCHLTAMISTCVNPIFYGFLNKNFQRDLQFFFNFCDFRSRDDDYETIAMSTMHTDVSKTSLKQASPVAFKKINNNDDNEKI
# EXPERIMENT: cell-based or functional assay
Where no end group is shown, it is not given here.
PARAMETER MEASURED: EC50, inositol phosphate turnover in transfected COS-7 cells (hY1 potency assay)

Reference set, count: 2
binder="PLEPVYPGENATPEQMAQYAADLRRYINMLTRPRY-NH2 [[Glu10]PP2-36]" readout_value="564 nM"
binder="PLEPVYPGDNATPEQMAQYAADLRRYINQLTRPRY-NH2 [[Gln30]PP2-36]" readout_value="> 1000 nM"

Now consider the entry below.
Enquiry: Which EC50, inositol phosphate turnover in transfected COS-7 cells (hY1 potency assay) is listed for PLEPVYPGDNATPEQMAQYAADLRRYINALTRPRY-NH2 [[Ala30]PP2-36] ?
Return: > 1000 nM
